Source: patent US20100298377A1

# tested.system: AKT1 (Homo sapiens, UniProt P31749, S473D)
# Sequence (P31749 118-480 S473D limits assumed): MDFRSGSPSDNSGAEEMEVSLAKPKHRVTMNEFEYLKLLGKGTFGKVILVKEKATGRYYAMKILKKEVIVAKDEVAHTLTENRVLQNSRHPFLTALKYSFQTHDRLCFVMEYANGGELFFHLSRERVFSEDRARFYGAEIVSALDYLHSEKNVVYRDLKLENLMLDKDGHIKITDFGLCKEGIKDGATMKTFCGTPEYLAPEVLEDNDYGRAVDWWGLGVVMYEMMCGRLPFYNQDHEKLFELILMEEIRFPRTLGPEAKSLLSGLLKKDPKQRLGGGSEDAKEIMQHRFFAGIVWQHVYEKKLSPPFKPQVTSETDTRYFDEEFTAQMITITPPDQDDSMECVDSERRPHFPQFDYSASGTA
# method.notes: Determination of the IC50 for AKT1 (HTRF)
# condition.summary: AKT1 without PH domain, activated by PDK1
value.kind: IC50

[[record]]
compound = "CN1CCCCC1C(NC(=O)Nc1ccc2[nH]nc(-c3ccncc3)c2c1)c1ccccc1 (stereo not shown)"
value_kind = "IC50"
readout_value = "0.1 to 0.5 µM"

[[record]]
compound = "O=C(Nc1ccc2[nH]ncc2c1)NC(c1cc(F)cc(Cl)c1)C1CCCCN1 (stereo not shown)"
value_kind = "IC50"
readout_value = "< 0.1 µM"

[[record]]
compound = "O=C(Nc1ccc2[nH]ncc2c1)O[C@@H](c1cccc(C(=O)NC2CCCCC2)c1)[C@@H]1CCCCN1"
value_kind = "IC50"
readout_value = "< 0.1 µM"

[[record]]
compound = "CN1CCCCC1C(c1ccccc1)N(C)C(=O)Nc1ccc2[nH]ncc2c1 (stereo not shown)"
value_kind = "IC50"
readout_value = "0.5 to 2 µM"

[[record]]
compound = "O=C(Nc1ccc2[nH]ncc2c1)N[C@H](c1ccc(Cl)c(Cl)c1)[C@H]1CCCCN1"
value_kind = "IC50"
readout_value = "< 0.1 µM"

[[record]]
compound = "Cc1n[nH]c2ccc(NC(=O)NC(c3ccccc3)C3CCCCN3C)cc12 (stereo not shown)"
value_kind = "IC50"
readout_value = "< 0.1 µM"

[[record]]
compound = "O=C(Nc1ccc2[nH]ncc2c1)N[C@@H](c1cc(F)cc(Cl)c1)[C@@H]1CCCCN1"
value_kind = "IC50"
readout_value = "< 0.1 µM"

